Origin of values: patent US20120219562A1

Target: T1, human interleukin 12 (human, UniProt P29459 23-219; P29460 23-328)
T1 construct: heterodimer of p35 and p40 linked by a disulfide bridge; also called hIL-12; IL-12
T1 sequence (looked up) 1: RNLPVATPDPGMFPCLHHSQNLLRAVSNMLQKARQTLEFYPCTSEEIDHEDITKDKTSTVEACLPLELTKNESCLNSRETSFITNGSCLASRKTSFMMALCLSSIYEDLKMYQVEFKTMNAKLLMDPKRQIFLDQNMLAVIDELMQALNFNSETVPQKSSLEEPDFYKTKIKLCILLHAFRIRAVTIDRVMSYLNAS
T1 sequence (looked up) 2: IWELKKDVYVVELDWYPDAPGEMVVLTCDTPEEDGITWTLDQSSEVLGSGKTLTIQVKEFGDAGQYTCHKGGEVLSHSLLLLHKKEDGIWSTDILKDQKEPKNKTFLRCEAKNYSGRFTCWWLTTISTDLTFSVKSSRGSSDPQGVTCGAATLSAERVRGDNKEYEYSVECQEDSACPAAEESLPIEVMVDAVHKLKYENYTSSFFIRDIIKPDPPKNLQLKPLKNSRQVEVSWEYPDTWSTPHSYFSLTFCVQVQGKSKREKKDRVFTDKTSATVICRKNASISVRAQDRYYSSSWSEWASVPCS
Assay: SPR (BIAcore)
Recorded Endpoint: koff (s⁻¹)
Give bare numbers, in s⁻¹.

# count of solved cases: 4
73-H2 (antibody, V domains shown) VH: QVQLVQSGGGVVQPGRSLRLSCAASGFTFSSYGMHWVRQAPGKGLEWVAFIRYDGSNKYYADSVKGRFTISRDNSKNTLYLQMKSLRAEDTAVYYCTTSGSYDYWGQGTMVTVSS VL: SYVLTQPPSVSGTPGQRVTISCSGGRSNIGSNTVKWYQQLPGTAPKLLIYGNDQRPSGVPDRFSGSKSGTSASLAITGVQAEDEADYYCQSYDSGFTGSRVFGTGTKVTVLG ... 0.00593
M2 E1 (antibody, V domains shown) VH: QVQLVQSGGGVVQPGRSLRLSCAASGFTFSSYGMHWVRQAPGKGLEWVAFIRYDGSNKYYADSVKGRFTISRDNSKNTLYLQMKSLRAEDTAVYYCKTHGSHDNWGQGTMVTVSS VL: SYVLTQPPSVSGTPGQRVTISCSGGRSNIGSNTVKWYQQLPGTAPKLLIYGNDQRPSGVPDRFSGSKSGTSASLAITGVQAEDEADYYCQTYDKGFTGSSVFGTGTKVTVLG ... 0.0532
73-D1 (antibody, V domains shown) VH: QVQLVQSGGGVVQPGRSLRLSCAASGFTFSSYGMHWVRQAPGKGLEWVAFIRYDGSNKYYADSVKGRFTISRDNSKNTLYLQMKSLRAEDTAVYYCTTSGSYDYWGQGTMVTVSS VL: SYVLTQPPSVSGTPGQRVTISCSGGRSNIGSNTVKWYQQLPGTAPKLLIYGNDQRPSGVPDRFSGSKSGTSASLAITGVQAEDEADYYCHSYDSGFTGSRVFGTGTKVTVLG ... 0.00399
M2 A2 (antibody, V domains shown) VH: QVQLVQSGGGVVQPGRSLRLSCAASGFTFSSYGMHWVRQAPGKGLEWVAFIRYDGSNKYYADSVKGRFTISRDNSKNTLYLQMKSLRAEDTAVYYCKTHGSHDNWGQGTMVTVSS VL: SYVLTQPPSVSGTPGQRVTISCSGGRSNIGSNTVKWYQQLPGTAPKLLIYGNDQRPSGVPDRFSGSKSGTSASLAITGVQAEDEADYYCQSYDRGIHGSRVFGTGTKVTVLG ... 0.04

Next, consider the following binder.
Query :: Any idea what its koff is? The binder is M2 H5 (antibody, V domains shown) VH: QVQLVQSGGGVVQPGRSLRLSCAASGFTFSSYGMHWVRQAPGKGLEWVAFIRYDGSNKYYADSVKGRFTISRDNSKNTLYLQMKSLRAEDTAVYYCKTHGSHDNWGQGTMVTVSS VL: SYVLTQPPSVSGTPGQRVTISCSGGRSNIGSNTVKWYQQLPGTAPKLLIYGNDQRPSGVPDRFSGSKSGTSASLAITGVQAEDEADYYCQSYDAGFTGSRVFGTGTKVTVLG
Result :: 0.0099
